Cited source for all entries: the supplement of paper PMC11208160

recombinant barcode read abundance (log10): recorded values
assay: recombinant barcode read abundance after kanamycin selection (control-corrected) (log10(CPM+1)); higher = more efficient recombination; sequences stand for … in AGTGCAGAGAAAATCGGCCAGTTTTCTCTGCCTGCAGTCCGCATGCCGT…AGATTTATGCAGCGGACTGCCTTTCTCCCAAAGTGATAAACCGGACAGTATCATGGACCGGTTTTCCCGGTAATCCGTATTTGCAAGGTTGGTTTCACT; site = the 11-nt target;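 further: IS621 recombinase and bridge RNA in Escherichia coli cells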

Some solved cases for reference:
chainSequence: TTGCTAACTTGGGTTCTAACCTGTTGCCT (site TTGCGAACTAG)
observedValue: 0.0431
//
chainSequence: GACTTGCCTTGGGTTCTAACCTGTTGCAT (site GACTTACCTAT)
observedValue: 0.0511
//
chainSequence: AGCACGACTTGGGTTCTAACCTGTTGCTG (site AGCACGACTCA)
observedValue: 0.684
//
chainSequence: GAAATGACTTGGGTTCTAACCTGTTGCCT (site GAAATGACTAG)
observedValue: 0.908
//
chainSequence: TAGTGGTCTTGGGTTCTAACCTGTTGCAT (site TAGTGGTCTTA)
observedValue: 0.215

Pending sequence:
CTTGGAGCTTGGGTTCTAACCTGTTGCCT (site CTTGGAACTAG) yielded recombinant barcode read abundance (log10) of 0.365
